Values compiled from ChEMBL document CHEMBL1137342.

Target: D(1A) dopamine receptor (Homo sapiens, UniProt P21728)
Sequence (P21728 whole entry): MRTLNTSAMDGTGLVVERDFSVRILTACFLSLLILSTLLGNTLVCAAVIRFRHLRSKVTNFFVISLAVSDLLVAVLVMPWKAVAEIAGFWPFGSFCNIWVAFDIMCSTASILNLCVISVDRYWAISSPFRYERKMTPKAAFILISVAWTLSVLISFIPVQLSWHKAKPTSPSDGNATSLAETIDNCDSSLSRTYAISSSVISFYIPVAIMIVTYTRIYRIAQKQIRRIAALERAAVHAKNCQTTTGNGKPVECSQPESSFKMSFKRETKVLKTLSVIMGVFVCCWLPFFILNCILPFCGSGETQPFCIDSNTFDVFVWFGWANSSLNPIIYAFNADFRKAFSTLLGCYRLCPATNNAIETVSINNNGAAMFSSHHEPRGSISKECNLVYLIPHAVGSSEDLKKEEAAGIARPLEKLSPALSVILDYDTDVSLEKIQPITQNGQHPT
Assay: Activity at human dopamine D1 receptor expressed in HEK293 cells assessed as stimulation of cAMP production
Parameter measured: EC50 (µM)
Your answer should be a plain number; it is taken to be in µM.

Hi! What's the reported EC50 for CCCN1Cc2ccccc2C2c3cc(O)c(O)cc3OCC21 (racemic) on D(1A) dopamine receptor (Homo sapiens, UniProt P21728)? 1.1

* * *

Target: UniProtKB P50130
Sequence (P50130 whole entry): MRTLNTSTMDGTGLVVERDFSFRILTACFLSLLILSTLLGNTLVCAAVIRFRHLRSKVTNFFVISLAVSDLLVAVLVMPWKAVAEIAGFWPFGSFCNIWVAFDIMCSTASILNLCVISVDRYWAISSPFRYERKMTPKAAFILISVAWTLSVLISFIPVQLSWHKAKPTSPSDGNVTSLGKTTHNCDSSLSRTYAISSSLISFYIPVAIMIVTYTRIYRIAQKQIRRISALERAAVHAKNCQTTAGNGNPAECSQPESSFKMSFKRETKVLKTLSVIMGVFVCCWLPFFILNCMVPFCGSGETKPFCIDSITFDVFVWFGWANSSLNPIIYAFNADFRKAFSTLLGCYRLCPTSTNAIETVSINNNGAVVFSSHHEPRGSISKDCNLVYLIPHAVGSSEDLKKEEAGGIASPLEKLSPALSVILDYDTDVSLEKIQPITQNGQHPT
Assay: Displacement of [3H]SCH-23390 from dopamine D1-like receptor in porcine striata homogenate
Parameter measured: pKi
A value of pKi is the negative decimal logarithm of a concentration given in moles per litre.

Hi! What's the reported pKi for CCCN1Cc2ccccc2C2c3cc(O)c(O)cc3OCC21 (racemic) on UniProtKB P50130? 6.48

* * *

Biological target: D(1B) dopamine receptor (Homo sapiens)
Sequence (P21918 whole entry): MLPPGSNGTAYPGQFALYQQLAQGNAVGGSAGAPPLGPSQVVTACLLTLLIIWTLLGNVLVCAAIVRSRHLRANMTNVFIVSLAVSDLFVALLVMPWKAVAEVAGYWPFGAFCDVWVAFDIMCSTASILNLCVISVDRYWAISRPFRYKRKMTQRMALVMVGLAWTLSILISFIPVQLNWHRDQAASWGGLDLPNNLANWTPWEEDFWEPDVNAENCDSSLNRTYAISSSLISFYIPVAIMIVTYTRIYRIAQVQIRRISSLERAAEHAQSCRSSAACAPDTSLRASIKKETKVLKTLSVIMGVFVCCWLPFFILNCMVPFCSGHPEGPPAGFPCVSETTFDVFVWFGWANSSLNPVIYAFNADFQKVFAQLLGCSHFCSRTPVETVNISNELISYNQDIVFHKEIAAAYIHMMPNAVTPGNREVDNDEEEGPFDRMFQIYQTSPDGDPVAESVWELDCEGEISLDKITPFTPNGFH
Experiment: Binding affinity to human cloned dopamine D5 receptor
Parameter measured: pKi
A value of pKi is the negative decimal logarithm of a concentration given in moles per litre.

Would you kindly share the measured pKi for Oc1cc2c(cc1O)C1c3ccccc3CNC1CO2 (racemic) ? 8.15

* * *

Molecular target: Alpha-2C adrenergic receptor (Homo sapiens, UniProt P18825)
Sequence (P18825 whole entry): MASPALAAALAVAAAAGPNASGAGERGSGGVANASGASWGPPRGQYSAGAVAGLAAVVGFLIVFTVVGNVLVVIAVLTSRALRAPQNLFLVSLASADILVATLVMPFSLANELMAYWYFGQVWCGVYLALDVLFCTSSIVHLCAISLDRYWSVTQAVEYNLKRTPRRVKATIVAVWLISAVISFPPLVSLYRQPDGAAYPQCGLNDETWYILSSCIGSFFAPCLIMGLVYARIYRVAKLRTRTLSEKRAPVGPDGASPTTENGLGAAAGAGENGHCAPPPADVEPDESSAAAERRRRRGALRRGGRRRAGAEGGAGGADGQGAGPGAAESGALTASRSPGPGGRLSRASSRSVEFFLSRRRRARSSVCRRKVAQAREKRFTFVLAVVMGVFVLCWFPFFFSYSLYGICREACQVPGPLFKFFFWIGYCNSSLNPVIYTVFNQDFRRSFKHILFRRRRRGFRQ
Test: Binding affinity to human cloned adrenergic alpha 2C receptor receptor
Parameter measured: pKi
A value of pKi is the negative decimal logarithm of a concentration given in moles per litre.

Would you kindly share the measured pKi for Oc1cc2c(cc1O)C1c3ccccc3CNC1CO2 (racemic) [DOXANTHRINE] ? 8.70

* * *

Molecular target: D(3) dopamine receptor (Homo sapiens)
Sequence (P35462 whole entry): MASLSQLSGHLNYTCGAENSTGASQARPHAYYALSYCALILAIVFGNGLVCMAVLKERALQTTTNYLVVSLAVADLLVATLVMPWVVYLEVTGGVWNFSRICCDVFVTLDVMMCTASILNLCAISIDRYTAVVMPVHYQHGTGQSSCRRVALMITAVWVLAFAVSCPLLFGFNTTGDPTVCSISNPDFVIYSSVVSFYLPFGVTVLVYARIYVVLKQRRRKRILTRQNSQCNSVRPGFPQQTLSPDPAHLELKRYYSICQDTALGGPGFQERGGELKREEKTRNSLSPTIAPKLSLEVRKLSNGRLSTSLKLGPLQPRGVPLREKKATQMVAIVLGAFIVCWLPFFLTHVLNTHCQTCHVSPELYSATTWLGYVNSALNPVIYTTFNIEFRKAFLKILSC
Parameter measured: pKi
A value of pKi is the negative decimal logarithm of a concentration given in moles per litre.

Would you kindly share the measured pKi for Oc1cc2c(cc1O)C1c3ccccc3CNC1CO2 (racemic) ? 6.41

* * *

Molecular target: Alpha-2B adrenergic receptor (Homo sapiens, UniProt P18089)
Sequence (P18089 whole entry): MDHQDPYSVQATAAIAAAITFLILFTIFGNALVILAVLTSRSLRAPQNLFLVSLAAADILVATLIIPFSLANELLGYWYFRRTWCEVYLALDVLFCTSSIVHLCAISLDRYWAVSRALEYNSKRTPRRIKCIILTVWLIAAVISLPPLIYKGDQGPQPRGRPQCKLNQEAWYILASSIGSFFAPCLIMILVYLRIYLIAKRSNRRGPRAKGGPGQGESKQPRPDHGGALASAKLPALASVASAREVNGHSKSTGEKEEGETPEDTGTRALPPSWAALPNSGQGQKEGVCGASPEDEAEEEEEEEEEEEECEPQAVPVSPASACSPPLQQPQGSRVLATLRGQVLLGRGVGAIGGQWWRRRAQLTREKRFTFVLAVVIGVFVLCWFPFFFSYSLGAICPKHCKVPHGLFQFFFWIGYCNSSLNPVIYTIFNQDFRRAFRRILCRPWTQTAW
Test: Binding affinity to human cloned adrenergic alpha 2B receptor receptor
Parameter measured: pKi
A value of pKi is the negative decimal logarithm of a concentration given in moles per litre.

Would you kindly share the measured pKi for Oc1cc2c(cc1O)C1c3ccccc3CNC1CO2 (racemic) ? 8.00

* * *

Target: D(2) dopamine receptor (Homo sapiens)
Sequence (P14416 whole entry): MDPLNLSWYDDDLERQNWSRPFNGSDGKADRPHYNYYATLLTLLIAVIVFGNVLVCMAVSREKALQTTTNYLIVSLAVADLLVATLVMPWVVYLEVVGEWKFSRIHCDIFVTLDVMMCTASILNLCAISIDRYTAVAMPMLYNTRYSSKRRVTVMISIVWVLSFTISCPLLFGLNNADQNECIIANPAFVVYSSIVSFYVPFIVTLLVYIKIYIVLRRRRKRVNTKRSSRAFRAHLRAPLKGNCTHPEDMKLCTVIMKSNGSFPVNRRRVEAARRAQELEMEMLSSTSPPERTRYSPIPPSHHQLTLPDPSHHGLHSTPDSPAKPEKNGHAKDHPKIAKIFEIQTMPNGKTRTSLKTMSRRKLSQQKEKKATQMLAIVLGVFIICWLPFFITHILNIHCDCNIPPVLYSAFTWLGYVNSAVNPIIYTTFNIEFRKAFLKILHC
Assay: Binding affinity to human cloned dopamine D2 receptor
Parameter measured: Ki (nM)
Your answer should be a plain number; it is taken to be in nM.

Would you kindly share the measured Ki for Oc1cc2c(cc1O)C1c3ccccc3CNC1CO2 (racemic) ? 1910

* * *

Observed EC50 for D(4) dopamine receptor (Homo sapiens, UniProt P21917), reported per entry below.
Your answer should be a plain number; it is taken to be in nM.

Would you kindly share the measured EC50 for CCCN1Cc2ccccc2C2c3cc(O)c(O)cc3OCC21 (racemic) ? 21

Ok, now Oc1cc2c(cc1O)[C@H]1c3ccccc3CN[C@@H]1CO2 (single isomer, unassigned) 95

Ok, now Oc1cc2c(cc1O)[C@@H]1c3ccccc3CN[C@H]1CO2 (single isomer, unassigned) 230

Ok, now Oc1cc2c(cc1O)C1c3ccccc3CNC1CO2 (racemic) [DOXANTHRINE] 110

* * *

Kindly supply the reported Intrinsic activity values for the records listed here.
Molecular target: D(2) dopamine receptor (Rattus norvegicus) (UniProt P61169)
Sequence (P61169 whole entry): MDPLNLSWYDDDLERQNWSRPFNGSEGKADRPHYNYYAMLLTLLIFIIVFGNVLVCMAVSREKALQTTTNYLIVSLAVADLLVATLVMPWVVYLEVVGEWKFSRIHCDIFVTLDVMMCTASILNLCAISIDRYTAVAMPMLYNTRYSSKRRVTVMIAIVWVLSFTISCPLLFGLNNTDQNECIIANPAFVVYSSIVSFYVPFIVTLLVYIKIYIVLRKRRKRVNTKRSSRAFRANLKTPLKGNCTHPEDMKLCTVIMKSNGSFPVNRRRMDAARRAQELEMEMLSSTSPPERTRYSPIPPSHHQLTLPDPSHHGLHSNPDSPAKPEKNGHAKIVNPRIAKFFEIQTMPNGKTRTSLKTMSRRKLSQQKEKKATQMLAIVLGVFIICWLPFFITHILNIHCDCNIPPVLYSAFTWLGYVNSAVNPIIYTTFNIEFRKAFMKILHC
Assay: Intrinsic activity at rat dopamine D2L receptor expressed in HEK293 cells assessed as inhibition of forskolin-stimulated cAMP production relative to dopamine
Format: functional, cell-based
Include the unit right after the number.

Would you kindly share the measured Intrinsic activity for CCCN1Cc2ccccc2C2c3cc(O)c(O)cc3OCC21 (racemic) ? 92%

Ok, now `CCCN1CCC[C@@H]2Cc3n[nH]cc3C[C@H]21` 95%

Ok, now `NCCc1ccc(O)c(O)c1` 100%

Ok, now `Oc1cc2c(cc1O)[C@H]1c3ccccc3CN[C@@H]1CC2` 70%
